tested on: c-Src; experiment: phosphorylation enrichment, bacterial display (enrichment ratio); higher = better substrate or ligand; peptides without Tyr show the background
Could you label it True if measured phosphorylation enrichment is 0.6 or higher, and False otherwise?

Worked cases, answers included:
- SEQUENCE_DATA: "CDYKKYGKGLR [ZNF445_Y433_Y428C]"
  DISCRETE_LABEL: "False"
- SEQUENCE_DATA: "SSQILYKLEQS [THADA_Y701_V699I]"
  DISCRETE_LABEL: "True"
- SEQUENCE_DATA: "EVEFQYPFRLH [SYP_Y73_E72Q]"
  DISCRETE_LABEL: "False"
- SEQUENCE_DATA: "VHLYAYDWISI [BEST1_Y227_G222V]"
  DISCRETE_LABEL: "True"
- SEQUENCE_DATA: "SVTCTGSPALN [TP53_Y126_Y126G]"
  DISCRETE_LABEL: "False"

Is phosphorylation enrichment at least 0.6? Consider SGFESYGSSSS [RPA2_Y9_Y14S]
False

Does the sequence ATPSRYMTFLH [DYNC2H1_Y2872] have recorded phosphorylation enrichment that is 0.6 or more?
False

Dear colleague, could you confirm whether KNSFKYYMSDD [ATRX_Y203_C200S] has phosphorylation enrichment at or above 0.6?
False

Identify whether the reported phosphorylation enrichment of the following sequence is 0.6 or greater: SSEFHCVGGFF [CTSC_Y347_Y347C_YF]
False

* * *

Readings of SH2 binding enrichment for the listed sequences
target: SHP2-C SH2; assay: SH2 binding enrichment of the phosphorylated peptide, bacterial display (enrichment ratio); higher = better substrate or ligand; peptides without Tyr show the background;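 note: peptide library displayed on the E. coli surface as eCPX fusions, selected cells deep-sequenced, score is each peptide's frequency after selection divided by its frequency in the input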
Answer with a number only.

Below, each entry is followed by its recorded SH2 binding enrichment result.
- SEQUENCE_DATA: "RWHEGYRQTPK [CD44_Y412]"
  TESTED_TARGET: "SHP2-C SH2"
  SH2 binding enrichment: 1.73
- SEQUENCE_DATA: "IVAREYFSEAD [CAMK2A_Y106_YF]"
  TESTED_TARGET: "SHP2-C SH2"
  SH2 binding enrichment: 0.867
- SEQUENCE_DATA: "RSDSTYRMSAT [NHS_Y1532_S1531T]"
  TESTED_TARGET: "SHP2-C SH2"
  SH2 binding enrichment: 0.472
- SEQUENCE_DATA: "IRTDAYVWAMT [RPE65_Y89_R91W]"
  TESTED_TARGET: "SHP2-C SH2"
  SH2 binding enrichment: 0.698
- SEQUENCE_DATA: "PELINYHQPNS [BTK_Y361_H364P]"
  TESTED_TARGET: "SHP2-C SH2"
  SH2 binding enrichment: 0.763

Entry GTAPSYGNPSS [CD19_Y378] has what SH2 binding enrichment?
0.556

Request the reported SH2 binding enrichment associated with IKELTYQTEED [MYH7_Y1852]
0.832

What measured SH2 binding enrichment goes with DEEFEYMNRRR [ERBB3_Y1199_YF] ?
0.799

* * *

tested on: AncSZ; test: phosphorylation enrichment, bacterial display (enrichment ratio); higher = better substrate or ligand; peptides without Tyr show the background
Note to self: values exactly at 1 are 1. So phosphorylation enrichment at or above 1 is 1, below is 0.

Use the examples below as a reference point.
- SEQUENCE_DATA: "PDMHSYVVRFN [GRIN2D_Y732_M733V_YF]"
  DISCRETE_LABEL: 0
- SEQUENCE_DATA: "ALWYIYSHTRS [ENG_Y614]"
  DISCRETE_LABEL: 1
- SEQUENCE_DATA: "IVTLKYPIEHG [ACTB_Y69_L65V]"
  DISCRETE_LABEL: 0
- SEQUENCE_DATA: "EVKAQNEDIAQ [KRT1_Y358_Y358N]"
  DISCRETE_LABEL: 0

Record KHTLSYVDVGT [SDHA_Y629] ; criterion: phosphorylation enrichment no lower than 1. Met?
0

Reported phosphorylation enrichment at or above 1? LSNPAYRLLLA [DDR1_Y513]
1

In plain terms: is recorded phosphorylation enrichment at least 1 for AEPTGYSAELS [EZR_Y499] ?
1

Determine whether this sequence has phosphorylation enrichment no lower than 1: GTAPSYGNPSS [CD19_Y378]
0

Sourced from the supplement of paper PMC10065799
